Please go through the items and note down their koff.
- target: T1, huEpoR protein (soluble human erythropoietin receptor) (human, UniProt P19235 25-250, limits assumed)
- T1 construct: also called soluble huEpoR; biotinylated huEpoR
- T1 sequence (looked up): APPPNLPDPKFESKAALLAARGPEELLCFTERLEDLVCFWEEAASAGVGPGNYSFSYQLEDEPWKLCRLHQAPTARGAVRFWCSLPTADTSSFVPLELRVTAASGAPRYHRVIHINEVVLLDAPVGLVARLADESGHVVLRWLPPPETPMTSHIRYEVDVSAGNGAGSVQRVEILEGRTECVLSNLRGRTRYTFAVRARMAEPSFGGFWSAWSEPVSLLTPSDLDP
- assay.notes: SPR, Biacore T100; scFv-Fc captured on anti-human IgG Fc CM5 chip, EpoR as analyte; 1:1 fit;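 further: measured at 25 °C in HBS-EP buffer with 0.1 mg/ml BSA, flowed at 50 µl/min, 1 min association then dissociation (10 min human, 5 min cyno EpoR)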
Numbers only, in s⁻¹.

Study these solved cases before continuing.
Mxb 319 (clone 319 scFv-Fc protein) (Fc fusion, Tested as scFv-Fc (maxibody) with an Fc derived from human IgG1) VH: QVQLVQSGAEIKKPGASVKVSCKTFGSPFSTNDIHWVRQAPGQGLEWMGIIDTSGAMTRYAQKFQGRVTVTRETSTSTVYMELSSLKSEDTAVYYCAREGCTNGVCYDNGFDIWGQGTLVTVSS VL: DIQMTQSPSTLSASIGDRVTITCRASEGIYHWLAWYQQKPGKAPKLLIYKASSLASGAPSRFSGSGSGTDFTLTISSLQPDDFATYYCQQYSNYPLTFGGGTKLEIK	0.0335
Mxb 330 (clone 330 scFv-Fc protein) (Fc fusion, Tested as scFv-Fc (maxibody) with an Fc derived from human IgG1) VH: EVQLVESGGGLVQPGGSLRLSCAVSGFTFSKYWMTWVRQAPGKGLEWVANIKPDGSEKYYVESVKGRFTISRDNAKNSVYLQMNSVRAEDTAVYYCARVSRGGSFSDWGQGTLVTVSS VL: QSALTQPPSASGSPGQSVTISCTGTSSDVGAYNYVSWYQQHPGKAPKLMIYEVARRPSGVPDRFSGSKSGNTASLTVSGLQAEDEADYYCSSYAGSNNFAVFGRGTKLTVL	0.0373

Now consider a different binder.
INPUT: Return reported koff; argument: Mxb 15 (clone 15 scFv-Fc protein) (Fc fusion, Tested as scFv-Fc (maxibody) with an Fc derived from human IgG1) VH: QVQLQESGPGLVRPSGTLSLTCAVSGGSIGSSNWWSWVRQAPGKGLEWIGEISQSGSTNYNPSLKGRVTISLDRSRNQLSLKLSSVTAADTAVYYCARQLRSIDAFDIWGPGTTVTVSA VL: SYVLTQPPSVSVSPGLTATITCSGDKLGDKYASWYQQKPGQSPVLVIYQDRKRPSGIPERFSGSNSGNTATLTISGTQAVDEADYYCQAWDSDTSYVFGTGTQLTVL
OUTPUT: 0.119
